# target: Aβ1-42 polypeptide (human)
# Sequence (peptide, as listed by the source): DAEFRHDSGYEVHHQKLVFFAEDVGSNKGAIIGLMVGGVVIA
# protocol_details: cell-based or functional assay
observation_type: relative fluorescence intensity (ThT, Aβ polymerization; hIgG = 1.00)

binder	val
066-4.26.14 mouse-human chimeric antibody (antibody, human IgG1, V domains shown) VH: EVKLVESGGGLVKPGGSLKLSCAASGFTFRSYAMSWVRQTPEKRLEWVASISTTSNTYYPDSVKGRFTTSRDNARNIVYLQMSSLRSDDTAMYYCGRGVITNQAWFAYWGQGTLVTVSA VL: DIVLTQSPATLSVTPGDSVSLSCRASQSISNNLHWYQQKSHESPRLLIKYASQSISGIPSRFSGSGSGTDFTLSVNNVGTEDFGMYFCQQSNSWPLTFGAGTKLELKR	0.71 relative to hIgG

Query block: I have this binder here, 066-4.26.14H5L3 (antibody, human IgG1, V domains shown, Humanized full-length antibody; human IgG1 heavy constant and human kappa light constant (vectors pGS003-hIgG1CH, pGS003-hIgKCL)) VH: EVQLVESGGGLVQPGGSLRLSCVASGFTFRSYAMSWVRQAPGKGLEWVASISTTSNTYYPDSVKGRFTTSRDNSKNTVYLQMSSLRAEDTAVYYCGRGVITNQAWFAYWGQGTLVTVSS VL: DIVLTQSPDFQSVTPKEKVTISCRASQSISNNLHWYQQKPDQSPKLLIKYASQSISGIPSRFSGSGSGTDFTLTINSLEAEDAAAYFCQQSNSWPLTFGPGTKVEIKR , and I need its recorded relative fluorescence intensity (ThT, Aβ polymerization; hIgG = 1.00).
Result block: 0.78 relative to hIgG

Query block: I have this binder here, 066-4.26.14 (antibody, V domains shown, Murine hybridoma antibody) VH: EVKLVESGGGLVKPGGSLKLSCAASGFTFRSYAMSWVRQTPEKRLEWVASISTTSNTYYPDSVKGRFTTSRDNARNIVYLQMSSLRSDDTAMYYCGRGVITNQAWFAYWGQGTLVTVSA VL: DIVLTQSPATLSVTPGDSVSLSCRASQSISNNLHWYQQKSHESPRLLIKYASQSISGIPSRFSGSGSGTDFTLSVNNVGTEDFGMYFCQQSNSWPLTFGAGTKLELK , and I need its recorded relative fluorescence intensity (ThT, Aβ polymerization; hIgG = 1.00).
Result block: 0.7 relative to hIgG

Query block: I have this binder here, 066-4.26.14H5L2 (antibody, human IgG1, V domains shown, Humanized full-length antibody; human IgG1 heavy constant and human kappa light constant (vectors pGS003-hIgG1CH, pGS003-hIgKCL)) VH: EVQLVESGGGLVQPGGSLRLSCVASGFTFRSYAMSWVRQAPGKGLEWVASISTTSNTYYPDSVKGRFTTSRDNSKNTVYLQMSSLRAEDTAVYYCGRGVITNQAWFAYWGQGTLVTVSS VL: DIVLTQSPATLSVSPGERATLSCRASQSISNNLHWYQQKPGQAPRLLIKYASQSISGIPARFSGSGSGTDFTLTISSLQSEDFAVYFCQQSNSWPLTFGGGTKVEIKR , and I need its recorded relative fluorescence intensity (ThT, Aβ polymerization; hIgG = 1.00).
Result block: 0.67 relative to hIgG

Query block: I have this binder here, 066-4.26.14H4L2 (antibody, human IgG1, V domains shown, Humanized full-length antibody; human IgG1 heavy constant and human kappa light constant (vectors pGS003-hIgG1CH, pGS003-hIgKCL)) VH: EVQLVESGGGLVQPGGSLRLSCAASGFTFRSYAMSWVRQAPGKGLEWVASISTTSNTYYPDSVKGRFTTSRDNAKNSVYLQMSSLRDEDTAMYYCGRGVITNQAWFAYWGQGILVTVSS VL: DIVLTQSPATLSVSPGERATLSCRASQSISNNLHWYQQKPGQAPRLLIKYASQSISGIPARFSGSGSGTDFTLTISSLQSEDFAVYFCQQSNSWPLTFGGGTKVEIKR , and I need its recorded relative fluorescence intensity (ThT, Aβ polymerization; hIgG = 1.00).
Result block: 0.7 relative to hIgG
